# System: Salmonella typhi
# experimental_details: Antimicrobial activity against Salmonella typhi ATCC 9484 by twofold broth dilution method
# Format: functional, Salmonella enterica subsp. enterica serovar Typhi
# conditions_used: Salmonella enterica
Listed compounds paired with reported MIC
Number only, in µg/mL; omit the unit.

INSERT INTO measurements (compound_string, recorded_metric, readout_units, value_observed) VALUES
  ('Cc1cc(=O)oc2cc(OCCCCCOc3ccc4c(C)cc(=O)oc4c3)ccc12', 'MIC', 'µg/mL', 512),
  ('Cc1cc(=O)oc2cc(OCCCCn3cncn3)ccc12', 'MIC', 'µg/mL', 16),
  ('Cc1cc(=O)oc2cc(OCCCCCBr)cc(OCCCCCBr)c12', 'MIC', 'µg/mL', 256),
  ('Cc1cc(=O)oc2cc(OCCCCCBr)ccc12', 'MIC', 'µg/mL', 512),
  ('Cc1cc(=O)oc2cc(OCCCCCCBr)ccc12', 'MIC', 'µg/mL', 256);

Note: attention shifts to another entry.
Complete the entry with MIC for Cc1cc(=O)oc2cc(OCc3ccc(Cn4cncn4)cc3)ccc12.Cl
16

* * *

# Test system: Proteus vulgaris
# experimental_details: Antimicrobial activity against Proteus vulgaris ATCC 6896 by twofold broth dilution method
# Type: functional
recorded_metric: MIC

Recorded MIC, per entry:
INSERT INTO measurements (compound, value_observed) VALUES
  ('Cc1cc(=O)oc2cc(OCc3ccc(COc4ccc5c(C)cc(=O)oc5c4)cc3)ccc12', '> 512 µg/mL'),
  ('Cc1cc(=O)oc2cc(OCCCCCn3cncn3)ccc12', '32 µg/mL'),
  ('Cc1cc(=O)oc2cc(OCCCCBr)ccc12', '256 µg/mL'),
  ('Cc1cc(=O)oc2cc(OCc3ccc(Cn4cncn4)cc3)cc(OCc3ccc(Cn4cncn4)cc3)c12.Cl', '16 µg/mL'),
  ('Cc1cc(=O)oc2cc(OCCCCCn3cncn3)cc(OCCCCCn3cncn3)c12', '4 µg/mL');

Recall the reported MIC of Cc1cc(=O)oc2cc(OCc3ccc(Cn4cncn4)cc3)cc(OCc3ccc(Cn4cncn4)cc3)c12 on Proteus vulgaris and write it down.
32 µg/mL

* * *

# Test system: Micrococcus luteus
# experimental_details: Antimicrobial activity against Micrococcus luteus ATCC 4698 by twofold broth dilution method
# Assay type: functional
recorded_metric: MIC

INSERT INTO assay_data (compound_string, recorded_metric, value_observed) VALUES
  ('O=C(N[C@H](CO)[C@H](O)c1ccc([N+](=O)[O-])cc1)C(Cl)Cl', 'MIC', '≤ 4 µg/mL'),
  ('CCn1cc(C(=O)O)c(=O)c2cc(F)c(N3CCNCC3)nc21', 'MIC', '≤ 1 µg/mL');

Note: attention shifts to another entry.
Complete the entry with MIC for Cc1cc(=O)oc2cc(OCc3ccc(COc4ccc5c(C)cc(=O)oc5c4)cc3)ccc12
> 512 µg/mL

* * *

# System: Proteus vulgaris
# experimental_details: Antimicrobial activity against Proteus vulgaris ATCC 6896 by twofold broth dilution method
# Type: functional
recorded_metric: MIC (µg/mL)
Number only, in µg/mL; omit the unit.

Recall the reported MIC of Cc1cc(=O)oc2cc(OCc3ccc(CBr)cc3)cc(OCc3ccc(CBr)cc3)c12 on Proteus vulgaris and write it down.
512

Recall the reported MIC of Cc1cc(=O)oc2cc(OCCCCCCn3cncn3)ccc12 on Proteus vulgaris and write it down.
32

Recall the reported MIC of Cc1cc(=O)oc2cc(OCCCCCCn3cncn3)cc(OCCCCCCn3cncn3)c12 on Proteus vulgaris and write it down.
8

Recall the reported MIC of Cc1cc(=O)oc2cc(O)ccc12 [HYMECROMONE] on Proteus vulgaris and write it down.
256
